Test system: modified luciferase expression
Experiment: Expression of Luc in different organs (liver, lung, spleen, femur) 6 hours after intravenous administration
Type: in vivo
Conditions: Table 20-3, mice, i.v., 0.5 mpk, spleen
Measured Total Flux Spleen, listed per entry for reference.

{"columns": ["mol", "target.entity", "Total Flux Spleen"],
 "data": [
  ["CCCCCCCCCCCCN(CCCCCCCCCCCC)CCN(CCO)CCCCCCCC(=O)OC(CCCCCCCC)CCCCCCCC", "modified luciferase expression", "5.11E+06"],
  ["CCCCCCCCCCCCN(CCO)CCN(CCCCCC(=O)OCCCCC)CCCCCC(=O)OCCCCC", "modified luciferase expression", "4.51E+04"],
  ["CCCCCCCCCCCCN(CCO)CCN(CCCCCCCCCCCC)CCCCCC(=O)OCCCCCCC", "modified luciferase expression", "4.58E+07"],
  ["CCCCCCCCCN(CCCCCCCCC)CCN(CCO)CCCCCC(=O)OCCCCC", "modified luciferase expression", "2.35E+05"],
  ["CCCCCCCCCCCCN(CCO)CCN(CCCCCCCCCCCC)CCCCCC(=O)OCCCCC", "modified luciferase expression", "3.12E+07"],
  ["CCCCC/C=C\\C/C=C\\CCCCCCCCN(CCO)CCN(CCCCCCCCCCCC)CCCCCCCCCCCC", "modified luciferase expression", "4.16E+06"],
  ["CCCCCCCCCCCCCCN(CCO)CCN(CCCCCCCCCCCCCC)CCCCCCCCCCCCCC", "modified luciferase expression", "6.15E+07"],
  ["CCCCCCCCCCCCN(CCCCCCCCCCCC)CCN(CCO)CCCCCC", "modified luciferase expression", "1.86E+06"],
  ["CCCCCCCCCCCCN(CCCCCCCCCCCC)CCNCCO", "modified luciferase expression", "2.74E+04"],
  ["CCCCCCCCCCCCCCN(CCCCCCCCCCCCCC)CCN(CCCO)CCCCCCCCCCCC", "modified luciferase expression", "9.24E+06"],
  ["CCCCCCCCCCCCN(CCO)CCN(CCCCCCCC(=O)OCCCCCCCCC)CCCCCCCC(=O)OCCCCCCCCC", "modified luciferase expression", "9.67E+07"],
  ["CCCCC/C=C\\C/C=C\\CCCCCCCCN(CCCCCCCC/C=C\\C/C=C\\CCCCC)CCN(CCO)CCCCCCCCCCCC", "modified luciferase expression", "1.04E+07"],
  ["CCCCCCCOC(=O)CCCCCN(CCO)CCN(CCCCCC(=O)OCCCCCCC)CCCCCC(=O)OCCCCCCC", "modified luciferase expression", "3.40E+06"],
  ["CCCCCCCCCCCCCCN(CCO)CCN(CCCCCCCCCCCC)CCCCCCCCCCCC", "modified luciferase expression", "1.11E+06"],
  ["CCCCC/C=C\\C/C=C\\CCCCCCCCN(CCO)CCN(CCCCCCCC/C=C\\C/C=C\\CCCCC)CCCCCCCC/C=C\\C/C=C\\CCCCC", "modified luciferase expression", "7.03E+05"],
  ["CCCCCCCCCCCCN(CCCCCCCCCCCC)CCN(CCO)CCCCCCCC(=O)OCCCCCCCCC", "modified luciferase expression", "2.70E+07"]
]}

* * *

Measured Size (nm), listed per entry for reference.
Experiment: Particle size and polydispersity index of nanoparticle compositions (Zetasizer Nano ZS)
Type: physicochemical
Settings: Table 5; hEPO mRNA; 40:20:38.5:1.5 Lipid:DOPE:Chol:PEG-DMG

{"columns": ["mol", "scale.unit", "Size (nm)"],
 "data": [
  ["CCCCCCCCCCCCN(CCCCCCCCCCCC)CCN(CCCCCCCCCCCC)CCN1CCN(CCN(CCCCCCCCCCCC)CCCCCC(=O)OCCCCC)CC1", "nm", 87.5],
  ["CCCCCCCCCCCCN(CCCCCCCCCCCC)CCN(CCCCCCCCCCCC)CCN1CCN(CCN(CCCCCCCC)CCCCCCCC)CC1", "nm", 75.4],
  ["CCCCCCCCCCCCCCN(CCCCCCCCCCCCCC)CCN1CCN(CCN(CCCCCCCCC)CCN(CCCCCCCCC)CCCCCCCCC)CC1", "nm", 114.5],
  ["CCCCCCCCCCCCN(CCCCCCCCCCCC)CCN(CCCCCCCCCCCC)CCN1CCN(CCN(CCCCCCCCCCCC)CCCCCCCCCCCC(=O)OC)CC1", "nm", 100.3]
]}

* * *

Experiment: Encapsulation efficiency of RNA (QUANT-IT RIBOGREEN RNA assay)
Assay type: physicochemical
Conditions: Table 1b

{"columns": ["compound", "EE (%)"],
 "data": [
  ["CCCCCCCCCN(CCCCCCCC(=O)OC)CCC1CCN(C(=O)CN(CCCCCCCCC)CCN(CCCCCCCCC)CCCCCCCCC)CC1 [Compound 57]", 98.8],
  ["CCCCCCCCCN(CCCCCC(=O)OCCC)CCC1CCN(C(=O)CN(CCCCCCCCC)CCN(CCCCCCCCC)CCCCCCCCC)CC1 [Compound 59]", 98.6],
  ["CCCCCCCCCN(CCCCCCCCC)CCC1CCCN(C(=O)CN(CCCCCCCCC)CCN(CCCCCCCCC)CCCCCCCCC)C1 (stereo not drawn) [Compound 73]", 98.85],
  ["CCCCCCCCCN(CCCC(=O)OCCCCC)CCC(=O)N1CCN(C(=O)CCN(CCCCCCCCC)CCN(CCCCCCCCC)CCCCCCCCC)CC1 [Compound 62]", 97.73],
  ["CCCCCCCCCN(CCCC(=O)OCCCCC)CCN(CCCCCCCCC)CC(=O)N1CCN(C(=O)CN(CCCCCCCCC)CCCC(=O)OCCCCC)CC1 [Compound 71]", 91.0],
  ["CCCCCCCCCN(CCCOC(=O)CCCCC)CCC1CCN(C(=O)CN(CCCCCCCCC)CCN(CCCCCCCCC)CCCCCCCCC)CC1 [Compound 61]", 99.1]
]}

* * *

Test: Particle size and polydispersity index of nanoparticle compositions (Zetasizer Nano ZS)
Type: physicochemical
Settings: Table 1; rows without footnote mark (lipid:DOPE:cholesterol:PEG-DMG 40:20:38.5:1.5, Luc mRNA; MC3 standard formulation)
Measured Size (nm), listed per entry for reference.

{"columns": ["compound", "Size (nm)"],
 "data": [
  ["CCCCCCCCCCCCCCN(CCCCCCCCCCCCCC)CCN1CCN(CCN(CCCCCCCCC)CCN(CCCCCCCCC)CCCCCCCCC)CC1", 106.4],
  ["CCCCCCCCCN(CCCCCCCCC)CCN(CCCCCCCCC)CC(=O)N1CCN(C(=O)CN(CCCCCCCCC)CCCCCCCCC)CC1", 89.7],
  ["CCCCC/C=C\\C/C=C\\CCCCCCCCN(CCCCCCCCCCCC)CCN1CCN(CCN(CCCCCCCCCCCC)CCN(CCCCCCCCCCCC)CCCCCCCCCCCC)CC1", 86.4],
  ["CCCCCCCCCN(CCCCCCCCC)CCN(CCCCCCCCC)CC(=O)N1CC2CC1CN2C(=O)CN(CCCCCCCCC)CCCCCCCCC (stereo not drawn)", 116.4],
  ["CCCCCCCCCCCCN(CCCCCCCCCCCC)CC(=O)N1CCN(C(=O)CN(CCCCCCCCC)CCN(CCCCCCCCC)CCCCCCCCC)CC1", 83.3],
  ["CCCCCCCCCCCCN(CCCCCCCCCCCC)CCN(CCCCCCCCCCCC)CCN1CCN(CCN(CCCCCCCCC)CCCCCCCCC)CC1", 85.4]
]}

* * *

Experiment: Lipid levels in liver and spleen 48 hours after administration
Type: in vivo, rats
Conditions: spleen, 48 hours after administration
Measured % remaining dose in spleen, listed per entry for reference.

{"columns": ["molecule", "% remaining dose in spleen, %"],
 "data": [
  ["CCCCCCCCCCCCN(CCCCCCCCCCCC)CCN(CCCCCCCCCCCC)CCN1CCN(CCN(CCCCCCCCCCCC)CCCCCC(=O)OCCCCC)CC1 [Compound 12]", 0.22],
  ["CCCCCCCCCCCCN(CCCCCCCCCCCC)CCN(CCCCCCCCCCCC)CCN1CCN(CCN(CCCCCCCC)CCCCCCCC)CC1 [Compound 22]", 0.41],
  ["CCCCCCCCCCCCN(CCCCCCCCCCCC)CCN(CCCCCCCCCCCC)CCN1CCN(CCN(CCCCCC(=O)OCCCCC)CCCCCC(=O)OCCCCC)CC1 [Compound 14]", 0.15]
]}

* * *

Tested on: IL-6
Assay: Cytokine production induced by sample formulations: IL-6
Type: in vivo
Settings: Table 20-4, formula (20-I); mice, i.v., 0.5 mpk, 6 hours; in pg/mL (unit assumed)
recorded.endpoint: IL-6

{"columns": ["mol", "observed"],
 "data": [
  ["CCCCC/C=C\\CCCCCN(CCO)CCN(CCCCCCCCCCCC)CCCCCCCCCCCC", 236.4],
  ["CCCCCCCCCCCCN(CCCO)CCN(CCCCCCCCCCCC)CCCCCCCCCCCC", 68.4],
  ["CCCCCCCCCCCCCCN(CCO)CCN(CCCCCCCCCCCC)CCCCCCCCCCCC", 67.1],
  ["CCCCCCCCCCCCN(CCCCCCCCCCCC)CCN(CCO)CCCCCC", 49.4],
  ["CCCCCCCOC(=O)CCCCCN(CCO)CCN(CCCCCC(=O)OCCCCCCC)CCCCCC(=O)OCCCCCCC", 140.8],
  ["CCCCCCCCCCCCN(CCCCCCCCCCCC)CCN(CCO)CCCCCCCCC", 6.3],
  ["CCCCCCCCCCCCN(CCO)CCN(CCCCCCCC(=O)OCCCCCCCCC)CCCCCCCC(=O)OCCCCCCCCC", 739.0],
  ["CCCCCCCCCCCCN(CCO)CCN(CCCCCCCCCCCC)CCCCCC(=O)OCCCCCCC", 24.5]
]}
